# merged literature set: IC50 with Epidermal growth factor receptor (Homo sapiens)
observation.type: IC50 (nM)

compound	value.reported
CC(=O)OC[C@H]1O[C@@H](n2c(-c3ccccc3)cs/c2=N\N=C\c2cc(=O)oc3cc(OCCC(C)C)ccc23)[C@H](OC(C)=O)[C@@H](OC(C)=O)[C@@H]1OC(C)=O	150
CCOc1ccc2c(C3SC(N(C(C)=O)[C@@H]4O[C@H](COC(C)=O)[C@H](OC(C)=O)[C@H](OC(C)=O)[C@H]4OC(C)=O)=NN3C(C)=O)cc(=O)oc2c1 (stereo partly specified)	220
CC[C@H](C(=O)N1CCCC[C@@H]1C(=O)O[C@H](CCc1ccc(OC)c(OC)c1)c1cccc(OCC(=O)NCCC(=O)N2CCN(CCCOc3cc4c(Nc5ccc(F)c(Cl)c5)ncnc4cc3OC)CC2)c1)c1cc(OC)c(OC)c(OC)c1	13
NC(=S)N1N=C(c2ccccc2)CC1/C=C/c1ccccc1 (stereo unspecified)	340
N#Cc1c(N)sc(C(=O)NC2=NN=C(O)/C2=C(\C=C\c2ccccc2)c2ccccc2)c1N	320
C=CC(=O)Nc1cccc(Nc2nc(Nc3ccc(N4CCN(C(C)=O)CC4)cc3OC)ncc2Cl)c1	87.6
CCC(=O)Nc1cccc(Nc2nc(Nc3ccc(N4CCN(C(C)=O)CC4)cc3OC)ncc2Cl)c1	62.9
Cc1c2ccc(Nc3ncc(Cl)c(Nc4cccc(NC(=O)CCl)c4)n3)cc2nn1C	78.9
CCC(=O)c1cnc(Nc2ccnc(-c3cnn(S(=O)(=O)C4CC4)c3)n2)cc1N[C@@H](C)CC	212
COc1ccc(-c2c3c([nH]c(=O)c2C#N)-c2ccc(OC)cc2CC3)cc1	130
COc1ccc(NC(=O)C2=C(C)NC(=S)NC2c2ccc(OCc3ccccc3)c(OC)c2)c(OC)c1 (stereo unspecified)	76.8
COc1ccc(-c2nc(-c3ccc(-c4nc(-c5nnc(-c6ccncc6)o5)c[nH]4)cc3)no2)cc1	958
Cc1c2ccc(Nc3ncc(Cl)c(Nc4cccc(NC(=O)/C=C/c5ccccc5)c4)n3)cc2nn1C	65.6
C=CC(=O)Nc1cccc(Nc2nc(Nc3ccc4[nH]c(=O)oc4c3)ncc2Cl)c1	63.5
CC(=O)N1CCN(c2ccc(Nc3ncc(Cl)c(Nc4cccc(NC(=O)/C=C/c5ccccc5)c4)n3)cc2)CC1	87.8

---

# merged literature set: pIC50 with Epidermal growth factor receptor (Homo sapiens, UniProt P00533)
pIC50: −log10 of the molar value.
observation.type: pIC50

1. CC(=O)N1CCN(c2ccc(Nc3ncc(Cl)c(Nc4cccc(NC(=O)CCl)c4)n3)cc2)CC1 6.94
2. COc1ccc2c(c1)CCc1c-2nc(N)c(C#N)c1-c1ccc(OC)cc1OC 6.89
3. CC(=O)OC[C@H]1O[C@@H](n2c(-c3ccccc3)cs/c2=N\N=C\c2cc(=O)oc3ccc(OCC(C)C)cc23)[C@H](OC(C)=O)[C@@H](OC(C)=O)[C@@H]1OC(C)=O 6.82
4. COc1cc(-c2nc3ccccc3s2)ccc1OCC(=O)N(C(=O)C(C)(C)C)C(=O)C(C)(C)C 7.05

---

# merged literature set: IC50 with Epidermal growth factor receptor (Homo sapiens, UniProt P00533)
observation.type: IC50 (nM)

1. COc1ccc2c(c1)CCc1c-2nc(N)c(C#N)c1-c1ccc(OC)c(OC)c1 130
2. CCNC(=O)c1cnc(Nc2ccnc(-c3cnn(S(=O)(=O)C4CC4)c3)n2)cc1N[C@@H](C)CC 77
3. COc1cccc(/C=N/c2c(C#N)nc3c(-c4cc(OC)c(OC)c(OC)c4)nc4ccccc4n23)c1 75.9
4. CCC(=O)Nc1cccc(Nc2nc(Nc3ccc(N4CCN(C(C)=O)CC4)cc3)ncc2Cl)c1 65.9
